- Measured Target: human Caspase 5 (CASP5), CASP5 (gene 838)
- Assay Procedure: NVS_ENZ_hCASP5: NovaScreen (NVS) Enzymatic Assay for human Caspase 5 (CASP5) (AID 2283137)
Records with an inconclusive call do not appear. Calls of active or inactive are those of the source. How the source made its calls: active means hit-call score of the fitted dose curve at least 0.9, where 1 is the maximum; inconclusive means response in the unintended direction; inactive means score below 0.9.

Line Notation | AC50
CC[C@H](NC(=O)c1cc(F)ccc1NS(=O)(=O)c1cccc2cccnc12)c1ccccc1 | inactive
CCN(Cc1cccnc1)C(=O)c1cccc(Cl)c1[C@]1(C)C(=O)N(Cc2ccc(OC)cc2OC)c2ccc(Cl)cc21 | inactive
CCCCCCCCOC(=O)c1cc(O)c(O)c(O)c1 | 25.4 µM (active)
CCN(Cc1cccc(S(=O)(=O)O)c1)c1ccc(C(=C2C=CC(=[N+](CC)Cc3cccc(S(=O)(=O)O)c3)C=C2)c2ccccc2S(=O)(=O)[O-])cc1 | 5.36 µM (active)

###

- Measured Target: Estrogen receptor (Homo sapiens)
- Assay Procedure: CCTE_Deisenroth_AIME_384WELL_LUC_Shift: CCTE's 384-well Estrogen Receptor Transactivation Assay with AIME metabolic competence data shift (ERTA luciferase; difference in metabolism positive and negative), Deisenroth Lab (AID 2284041);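 further: shift is response with S9 minus without S9 so positive means metabolism raised ER signal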
Activity calls are given as the source filed them. The calls were made as follows: active = hit-call score of the fitted dose curve at least 0.9, where 1 is the maximum; inactive = score below 0.9.
Respond with a class label; see y = active, n = inactive

Worked examples follow.
Compound | Measured Target | Discrete Label
CCN(CC)C(=O)c1cc(S(=O)(=O)Cc2ccccc2)c(N2CCC(c3ccccc3)CC2)cc1N(CC)CCN(C)C | Estrogen receptor (Homo sapiens) | n
CC[C@H](NC(=O)c1cc(F)ccc1NS(=O)(=O)c1cccc2cccnc12)c1ccccc1 | Estrogen receptor (Homo sapiens) | n
Cc1ccc(C(C)C)cc1 | Estrogen receptor (Homo sapiens) | n
CCCCCCCCCCCO | Estrogen receptor (Homo sapiens) | n
O=C(O)Cn1c(=O)n(Cc2ccc(Br)cc2F)c(=O)c2ccc(Cl)cc21 | Estrogen receptor (Homo sapiens) | y
COCC(C)OCC(C)OCC(C)O (configuration not stated) | Estrogen receptor (Homo sapiens) | n
CCCOC(=O)c1cc(O)c(O)c(O)c1 | Estrogen receptor (Homo sapiens) | n
O=c1[nH]sc2ccccc12 | Estrogen receptor (Homo sapiens) | n

Query :: Dear all, I need the recorded test outcome for CC(C)(C)c1cc(/C=C2\SC(N)=NC2=O)cc(C(C)(C)C)c1O , thank you.
Result :: n

Query :: // repeat for CCCCCCCCOC(=O)c1cc(O)c(O)c(O)c1 and report
Result :: n

Query :: // repeat for OC12N=C(c3ccccc3)SC1Cc1cc(Cl)ccc12 (configuration not stated) and report
Result :: y

Query :: // repeat for Cc1oc2c(NC(=O)c3c(Cl)cccc3Cl)cccc2c1C(C)(C)O and report
Result :: n

###

- Measured Target: human Adenosine Transporter (Adot), SLC29A1 (gene 2030)
- Assay Procedure: NVS_TR_hAdoT: NovaScreen (NVS) Transporter Assay for human Adenosine Transporter (Adot) (AID 2283368)
Results filed as inconclusive are left out. Activity calls are given as the source filed them. The calls were made as follows: active = hit-call score of the fitted dose curve at least 0.9, where 1 is the maximum; inconclusive = response in the unintended direction; inactive = score below 0.9.
Respond with a class label; see True (active), False (inactive)

Worked examples follow.
Line Notation | Discrete Label
Cc1occc1C(=O)Nc1ccc(C(=O)N2CCC(F)(F)/C(=C\C(=O)N3CCC(N4CCCCC4)CC3)c3ccccc32)cc1 | True
CCN(Cc1cccnc1)C(=O)c1cccc(Cl)c1[C@]1(C)C(=O)N(Cc2ccc(OC)cc2OC)c2ccc(Cl)cc21 | True
COc1ccc2cc(S(=O)(=O)N[C@H](CC(=O)N[C@H](Cc3ccc(CN4[C@H](C)CCC[C@@H]4C)cc3)C(=O)N(C)C(C)C)c3ccc4c(c3)OCO4)ccc2c1 | True

Query :: Dear all, I need the recorded test outcome for CCCCCCCCCCCC[N+](C)(C)C , thank you.
Result :: False
